The entries below come with measured Lym values attached.
species on record: Rattus norvegicus; experiment: Open TG-GATES - Regimen: Daily Repeat; type: toxicity, organism-based, Sprague-Dawley; set-up: regimen Daily Repeat, gender Male, age 6 weeks; conditions: in vivo, po, 0 mg/kg, 72 h, tissue Blood, route gavage, dose level Control, time 3 day
Provide only the numeric value, understood in %.

CN(CCOc1ccc(CC2SC(=O)NC2=O)cc1)c1ccccn1.O=C(O)/C=C\C(=O)O (stereo not drawn) [ROSIGLITAZONE MALEATE]	76.6
O=C(O)c1ccccc1Nc1ccccc1 [FENAMIC ACID]	75.2

Let us move to another entry and its Lym.
Please list Lym recorded for the compound CN(C/C=C/C#CC(C)(C)C)Cc1cccc2ccccc12 [TERBINAFINE] 76

* * *

organism: Rattus norvegicus; assay: Open TG-GATES - Regimen: Single; assay type: toxicity, organism-based, Sprague-Dawley; set-up: regimen Single, gender Male, age 6 weeks; settings: in vivo, po, 0 mg/kg, 6 h, tissue Plasma, route gavage, dose level Control
Value type: GLC (mg/dL)
Please respond with the number in mg/dL and leave the unit unwritten.

Specify measured GLC for CN(C)CCCN1c2ccccc2Sc2ccc(Cl)cc21 . 190

Please indicate GLC recorded for CCO 184.8

Return GLC for the following compound: CCN(CC)C(=S)SSC(=S)N(CC)CC 184

Could you please provide reported GLC for CN(CCOc1ccc(CC2SC(=O)NC2=O)cc1)c1ccccn1.O=C(O)/C=C\C(=O)O (centres undefined) [ROSIGLITAZONE MALEATE] ? Thanks! 183.4

* * *

species: Rattus norvegicus; assay: Open TG-GATES - Regimen: Single; format: toxicity, organism-based, Sprague-Dawley; set-up: regimen Single, gender Male, age 6 weeks; details: in vivo, po, 0 mg/kg, 24 h, tissue Blood, route gavage, dose level Control
We begin with a simple list: items and their reported MCV.
The reply should be a number in fL, with the unit left off.

Recorded MCV, per entry:
CN(C/C=C/C#CC(C)(C)C)Cc1cccc2ccccc12	64.3
CCO	65.6
CCCCNC(=O)NS(=O)(=O)c1ccc(C)cc1 [TOLBUTAMIDE]	64.9
COc1ccc([C@@H]2Sc3ccccc3N(CCN(C)C)C(=O)[C@@H]2OC(C)=O)cc1	64.9
NS(=O)(=O)c1cc(C(=O)O)c(NCc2ccco2)cc1Cl [FUROSEMIDE]	64.1
Nc1ccc(Cc2ccc(N)cc2)cc1	61.6
CC(S)C(=O)NCC(=O)O (centres undefined)	64.7
CCN(CC)C(=S)SSC(=S)N(CC)CC	62.5

Next compound, please.
Answer with reported MCV of O=c1ccc2ccccc2o1 65.1

* * *

Catalogue of molecules with associated IP
species: Rattus norvegicus; test: Open TG-GATES - Regimen: Daily Repeat; format: toxicity, organism-based, Sprague-Dawley; set-up: regimen Daily Repeat, gender Male, age 6 weeks; conditions: in vivo, po, 0 mg/kg, […], tissue Plasma, route gavage, dose level Control, time 7 day
Please don't drop the unit; write it after the number.

The cases that follow already have their IP on record.
CN(CCOc1ccc(CC2SC(=O)NC2=O)cc1)c1ccccn1.O=C(O)/C=C\C(=O)O (stereo not drawn) [ROSIGLITAZONE MALEATE]	7.1 mg/dL
CCCCNC(=O)NS(=O)(=O)c1ccc(C)cc1 [TOLBUTAMIDE]	8.1 mg/dL

Please list IP recorded for the molecule CN(C/C=C/C#CC(C)(C)C)Cc1cccc2ccccc12 [TERBINAFINE] 7.8 mg/dL

* * *

The following compounds are listed with their measured TP values.
organism: Rattus norvegicus; experiment: Open TG-GATES - Regimen: Single; format: toxicity, organism-based, Sprague-Dawley; design: regimen Single, gender Male, age 6 weeks; details: in vivo, po, 0 mg/kg, 24 h, tissue Plasma, route gavage, dose level Control
Number in g/dL, nothing else.

COc1cc2ncnc(Nc3ccc(F)c(Cl)c3)c2cc1OCCCN1CCOCC1	5.7
CC(=O)[C@@]1(O)CC[C@H]2[C@@H]3C=C(Cl)C4=CC(=O)CC[C@]4(C)[C@H]3CC[C@@]21C	5.5
CCO	5.5
CCN(CC)C(=S)SSC(=S)N(CC)CC	5.5
C=C[C@H]1C[N@@]2CC[C@H]1C[C@@H]2[C@@H](O)c1ccnc2ccc(OC)cc12	5.7

Continue with the next compound.
Could you please provide reported TP for CCCCNC(=O)NS(=O)(=O)c1ccc(C)cc1 [TOLBUTAMIDE] ? Thanks! 5.6

* * *

TP listing for selected compounds.
organism: Rattus norvegicus; test: Open TG-GATES - Regimen: Single; format: toxicity, organism-based, Sprague-Dawley; design: regimen Single, gender Male, age 6 weeks; conditions: in vivo, po, 0 mg/kg, 6 h, tissue Plasma, route gavage, dose level Control
# output: bare number, implied unit g/dL

NS(=O)(=O)c1cc(C(=O)O)c(NCc2ccco2)cc1Cl [FUROSEMIDE]	5.5
CN(C)CCCN1c2ccccc2Sc2ccc(Cl)cc21 [CHLORPROMAZINE]	5.4

State its TP for this compound: COc1ccc([C@@H]2Sc3ccccc3N(CCN(C)C)C(=O)[C@@H]2OC(C)=O)cc1 [DILTIAZEM] 5.1

# return recorded TP for entry CN(CCOc1ccc(CC2SC(=O)NC2=O)cc1)c1ccccn1.O=C(O)/C=C\C(=O)O (stereo unspecified) [ROSIGLITAZONE MALEATE] 5.3

Annotate the compound Nc1ccc(Cc2ccc(N)cc2)cc1 with its measured TP. 5.7

Provide only the value of recorded TP for CCO [ALCOHOL] 5.4

* * *

Form field: GLC (one value per entry).
species: Rattus norvegicus; assay: Open TG-GATES - Regimen: Daily Repeat; format: toxicity, organism-based, Sprague-Dawley; set-up: regimen Daily Repeat, gender Male, age 6 weeks; settings: in vivo, po, 0 mg/kg, […], tissue Plasma, route gavage, dose level Control, time 7 day
Put down the number, then write its unit next to it.

CCN(CC)C(=S)SSC(=S)N(CC)CC	203.8 mg/dL
CC(=O)[C@@]1(O)CC[C@H]2[C@@H]3C=C(Cl)C4=CC(=O)CC[C@]4(C)[C@H]3CC[C@@]21C [CHLORMADINONE]	200.8 mg/dL

Then there is this molecule:
Using known records, supply GLC for CCO [ALCOHOL] 197.8 mg/dL

* * *

species: Rattus norvegicus; test: Open TG-GATES - Regimen: Single; format: toxicity, organism-based, Sprague-Dawley; set-up: regimen Single, gender Male, age 6 weeks; conditions: in vivo, po, 0 mg/kg, 6 h, tissue Plasma, route gavage, dose level Control
Listing of entries alongside the reported DBIL.
Include the unit after the number when you answer.

Here are 3 molecules together with their reported answers.
O=C(O)c1ccccc1Nc1ccccc1	0.004 mg/dL
CCN(CC)C(=S)SSC(=S)N(CC)CC	0 mg/dL
NS(=O)(=O)c1cc(C(=O)O)c(NCc2ccco2)cc1Cl [FUROSEMIDE]	0.012 mg/dL

Identify measured DBIL associated with CN(C/C=C/C#CC(C)(C)C)Cc1cccc2ccccc12 0.074 mg/dL

In one line, give reported DBIL of the entry CC(S)C(=O)NCC(=O)O (stereo not given) . 0.002 mg/dL

Tell me DBIL reported for C=C[C@H]1C[N@@]2CC[C@H]1C[C@@H]2[C@@H](O)c1ccnc2ccc(OC)cc12 0 mg/dL

Query DBIL for COc1cc2ncnc(Nc3ccc(F)c(Cl)c3)c2cc1OCCCN1CCOCC1 0.002 mg/dL

* * *

As shown below, each of these compounds has a reported Bas value.
organism: Rattus norvegicus; assay: Open TG-GATES - Regimen: Daily Repeat; format: toxicity, organism-based, Sprague-Dawley; set-up: regimen Daily Repeat, gender Male, age 6 weeks; details: in vivo, po, 0 mg/kg, 72 h, tissue Blood, route gavage, dose level Control, time 3 day

O=C(O)c1ccccc1Nc1ccccc1	0.4%
CCCCNC(=O)NS(=O)(=O)c1ccc(C)cc1 [TOLBUTAMIDE]	0.2%

Give me measured Bas, please, for this compound: CCCCC1C(=O)N(c2ccccc2)N(c2ccccc2)C1=O 0%

Dear colleague, please send me the reported Bas for COc1ccc([C@@H]2Sc3ccccc3N(CCN(C)C)C(=O)[C@@H]2OC(C)=O)cc1 when you can. 0.2%

* * *

Measured PT, listed per entry for reference.
species on record: Rattus norvegicus; experiment: Open TG-GATES - Regimen: Single; format: toxicity, organism-based, Sprague-Dawley; parameters: regimen Single, gender Male, age 6 weeks; conditions: in vivo, po, 0 mg/kg, 6 h, tissue Blood, route gavage, dose level Control
Answer format: numeric, s implied, no suffix.

Some compounds with known PT results, for comparison:
NS(=O)(=O)c1cc(C(=O)O)c(NCc2ccco2)cc1Cl [FUROSEMIDE]	15.3
CCN(CC)C(=S)SSC(=S)N(CC)CC	16.6
O=c1ccc2ccccc2o1	12.4

Please turn your attention to the following entry.
Return reported PT. Input compound: CC(=O)[C@@]1(O)CC[C@H]2[C@@H]3C=C(Cl)C4=CC(=O)CC[C@]4(C)[C@H]3CC[C@@]21C 16.1

Data credit: ChEMBL document CHEMBL3885861
